target: transferrin receptor (hTfR) (Homo sapiens); assay: Intermolecular interaction evaluation test between transferrin receptor (hTfR) and peptide by surface plasmon resonance (SPR); format: binding; conditions: surface plasmon resonance, peptide vs hTfR; read-out: KD value, hTfR binding by SPR (class symbol)
pKd: −log10 of the molar value.
Listed here are compounds together with their documented pKd.

compound	pKd
CC[C@H](C)[C@@H]1NC(=O)[C@H](Cc2ccc(O)cc2)NC(=O)[C@H](Cc2ccc(O)cc2)NC(=O)[C@H](CC(N)=O)NC(=O)[C@H](Cc2c[nH]c3ccccc23)N(C)C(=O)[C@H](C(C)C)NC(=O)[C@H](Cc2ccccc2)N(C)C(=O)[C@H](C(C)C)NC(=O)[C@H](C)NC(=O)CSC[C@@H](C(N)=O)NC(=O)[C@H](Cc2ccc(O)cc2)N(C)C(=O)[C@H](Cc2ccc(O)cc2)NC(=O)[C@H](CCCNC(=N)N)NC(=O)[C@H](CCCNC(=N)N)NC(=O)[C@H]([C@@H](C)CC)NC1=O [compound 299]	7.00 to 9.00

Field: next compound
q: Find the measured pKd of CC[C@H](C)[C@@H]1NC(=O)[C@H](Cc2ccc(OC)cc2)NC(=O)[C@H](Cc2ccc(O)cc2)NC(=O)[C@H](CC(N)=O)NC(=O)[C@H](Cc2cn(CC(=O)O)c3ccccc23)NC(=O)[C@H](C(C)C)NC(=O)[C@H](Cc2cccc(Cl)c2)N(C)C(=O)[C@H](C(C)C)NC(=O)[C@H](C)NC(=O)CSC[C@@H](C(N)=O)NC(=O)[C@H](Cc2ccc(O)cc2)N(C)C(=O)[C@H](Cc2ccccc2)NC(=O)[C@@H](CCCNC(=N)N)NC(=O)[C@H](CCCNC(=N)N)NC(=O)[C@H]([C@@H](C)CC)NC1=O [compound 306] and report it.
a: 7.00 to 9.00

* * *

target: transferrin receptor (hTfR) (Homo sapiens, UniProt P02786); assay: Intermolecular interaction evaluation test between transferrin receptor (hTfR) and peptide by surface plasmon resonance (SPR); type: binding; settings: binding to hTfR by SPR; Table 2 peptides; read-out: KD value (SPR) class
Sequence (P02786 whole entry): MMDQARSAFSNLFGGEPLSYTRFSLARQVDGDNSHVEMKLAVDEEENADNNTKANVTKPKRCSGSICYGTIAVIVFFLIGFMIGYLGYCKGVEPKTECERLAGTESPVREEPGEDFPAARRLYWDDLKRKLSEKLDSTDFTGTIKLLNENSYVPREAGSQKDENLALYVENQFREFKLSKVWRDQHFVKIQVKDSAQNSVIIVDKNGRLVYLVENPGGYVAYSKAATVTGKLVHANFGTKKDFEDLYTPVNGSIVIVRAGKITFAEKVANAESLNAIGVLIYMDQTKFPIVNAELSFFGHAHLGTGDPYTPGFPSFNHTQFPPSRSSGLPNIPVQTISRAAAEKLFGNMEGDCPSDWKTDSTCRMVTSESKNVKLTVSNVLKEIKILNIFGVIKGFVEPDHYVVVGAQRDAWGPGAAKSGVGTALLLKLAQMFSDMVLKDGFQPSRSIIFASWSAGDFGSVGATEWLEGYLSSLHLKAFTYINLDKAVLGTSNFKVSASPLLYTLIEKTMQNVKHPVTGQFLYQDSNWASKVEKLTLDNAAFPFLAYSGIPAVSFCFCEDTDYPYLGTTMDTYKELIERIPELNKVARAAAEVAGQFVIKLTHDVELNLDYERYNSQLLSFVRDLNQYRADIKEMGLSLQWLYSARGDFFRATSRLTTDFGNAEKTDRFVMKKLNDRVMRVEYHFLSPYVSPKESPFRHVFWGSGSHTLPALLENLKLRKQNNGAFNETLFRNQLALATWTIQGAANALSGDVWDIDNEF
pKd: −log10 of the molar value.
property.label: pKd

smiles.structure	pKd
CC[C@H](C)[C@@H]1NC(=O)[C@H](Cc2ccc(O)cc2)NC(=O)[C@H](Cc2ccc(O)cc2)NC(=O)[C@H](CC(N)=O)NC(=O)[C@H](Cc2c[nH]c3ccccc23)NC(=O)[C@H](C(C)C)NC(=O)[C@H](Cc2ccccc2)NC(=O)[C@H](C(C)C)NC(=O)[C@H](C)NC(=O)CSC[C@@H](C(N)=O)NC(=O)[C@H](Cc2ccc(O)cc2)N(C)C(=O)[C@H](CCCCN)NC(=O)[C@H](CCCNC(=N)N)NC(=O)[C@H](CCCNC(=N)N)NC(=O)[C@H]([C@@H](C)CC)NC1=O	7.00 to 9.00

# next compound below
q: Look up and report measured pKd for this entry: CC[C@H](C)[C@@H]1NC(=O)[C@H](Cc2ccc(O)cc2)NC(=O)[C@H](Cc2ccc(O)cc2)NC(=O)[C@H](CC(N)=O)NC(=O)[C@H](Cc2c[nH]c3ccccc23)NC(=O)[C@H](C(C)C)NC(=O)[C@H](Cc2ccccc2)NC(=O)[C@H](CCCNC(=N)N)NC(=O)[C@H](C)NC(=O)CSC[C@@H](C(N)=O)NC(=O)[C@H](Cc2ccc(O)cc2)N(C)C(=O)[C@H](Cc2ccc(O)cc2)NC(=O)[C@H](CCCNC(=N)N)NC(=O)[C@H](CCCNC(=N)N)NC(=O)[C@H]([C@@H](C)CC)NC1=O
a: 7.00 to 9.00

* * *

Target: transferrin receptor (hTfR) (Homo sapiens, UniProt P02786)
Assay: Intermolecular interaction evaluation test between transferrin receptor (hTfR) and peptide by surface plasmon resonance (SPR)
Type: binding
Settings: binding to hTfR by SPR; Table 2 peptides; read-out: KD value (SPR) class
Method: For each of the various synthesized peptides, the intermolecular interaction of the peptide with the transferrin receptor (hTfR) was tested by surface plasmon resonance (SPR) according to the following method. The specific test method is as follows. […]
property.label: Kd

compound	measured.target	test.result
CC[C@H](C)[C@@H]1NC(=O)[C@H](Cc2ccc(O)cc2)NC(=O)[C@H](Cc2ccc(O)cc2)NC(=O)[C@H](CC(N)=O)NC(=O)[C@H](Cc2c[nH]c3ccccc23)NC(=O)[C@H](C(C)C)NC(=O)[C@H](Cc2ccccc2)NC(=O)[C@H](C(C)C)NC(=O)[C@H](C)NC(=O)CSC[C@@H](C(N)=O)NC(=O)[C@H](Cc2ccc(O)cc2)N(C)C(=O)[C@H](Cc2ccc(O)cc2)NC(=O)[C@H](C)NC(=O)[C@H](CCC(=O)O)NC(=O)[C@H]([C@@H](C)CC)NC1=O [compound 252]	transferrin receptor (hTfR) (Homo sapiens, UniProt P02786)	0.1 to 1 µM

We now examine a further compound.
q: Report Kd from transferrin receptor (hTfR) (Homo sapiens, UniProt P02786) testing of CC[C@H](C)[C@@H]1NC(=O)[C@H](Cc2ccc(O)cc2)NC(=O)[C@H](Cc2ccc(O)cc2)NC(=O)[C@H](CC(N)=O)NC(=O)[C@H](Cc2c[nH]c3cc(F)ccc23)NC(=O)[C@H](C(C)C)NC(=O)[C@H](Cc2ccccc2)N(C)C(=O)[C@H](C(C)C)NC(=O)[C@H](C)NC(=O)CSC[C@@H](C(N)=O)NC(=O)[C@H](Cc2ccc(O)cc2)N(C)C(=O)[C@H](Cc2ccc(O)cc2)NC(=O)[C@H](CCCNC(=N)N)NC(=O)[C@H](CCCNC(=N)N)NC(=O)[C@H]([C@@H](C)CC)NC1=O [compound 270]
a: 0.001 to 0.1 µM

* * *

# pKd per record follows
biological target: transferrin receptor (hTfR) (Homo sapiens, UniProt P02786); assay: Intermolecular interaction evaluation test between transferrin receptor (hTfR) and peptide by surface plasmon resonance (SPR); assay type: binding; conditions: binding to hTfR by SPR; Table 2 peptides; read-out: KD value (SPR) class
pKd: −log10 of the molar value.

smiles.structure	test.result
CC[C@H](C)[C@@H]1NC(=O)[C@H](Cc2ccc(O)cc2)NC(=O)[C@H](Cc2ccc(O)cc2)NC(=O)[C@H](CC(N)=O)NC(=O)[C@H](Cc2c[nH]c3ccccc23)NC(=O)[C@H](C(C)C)NC(=O)[C@H](Cc2ccccc2)NC(=O)[C@H](C(C)C)NC(=O)[C@H](C)NC(=O)CSC[C@@H](C(N)=O)NC(=O)[C@H](Cc2ccc(O)cc2)N(C)C(=O)[C@H](Cc2ccc(O)cc2)NC(=O)[C@H](CCC(=O)O)NC(=O)[C@H](CCCNC(=N)N)NC(=O)[C@H]([C@@H](C)CC)NC1=O	7.00 to 9.00

Could you now consider this next molecule?
q: Let me know recorded pKd for CC[C@H](C)[C@@H]1NC(=O)[C@H](C2CCCCC2)NC(=O)[C@H](Cc2ccc(O)cc2)NC(=O)[C@H](Cc2ccc(O)cc2)NC(=O)[C@H](CC(N)=O)NC(=O)[C@H](Cc2c[nH]c3ccccc23)NC(=O)[C@H](C(C)C)NC(=O)[C@H](Cc2ccccc2)N(C)C(=O)[C@H](C(C)C)NC(=O)[C@H](C)NC(=O)CSC[C@@H](C(N)=O)NC(=O)[C@H](Cc2ccc(O)cc2)N(C)C(=O)[C@H](Cc2ccc(O)cc2)NC(=O)[C@H](CCCNC(=N)N)NC(=O)[C@H](CCCNC(=N)N)NC1=O , thanks.
a: 7.00 to 9.00

* * *

target: UniProt:P02786; test: Intermolecular interaction evaluation test between transferrin receptor (hTfR) and peptide by surface plasmon resonance (SPR); format: binding; settings: SPR; peptides, linker-added peptides and FITC conjugates, Patent ID 203-230; read-out: KD
property.label: Kd

Here's what some known entries look like.
smiles.structure	measured.target	test.result
CC[C@H](C)[C@@H]1NC(=O)[C@H](Cc2ccc(OC)cc2)NC(=O)[C@H](Cc2ccc(O)cc2)NC(=O)[C@H](CC(N)=O)NC(=O)[C@H](Cc2c[nH]c3ccccc23)N(C)C(=O)[C@H](C(C)C)NC(=O)[C@H](Cc2cccc(Cl)c2)N(C)C(=O)[C@H](C(C)C)NC(=O)[C@H](C)N(C)C(=O)CSC[C@@H](C(N)=O)NC(=O)[C@H](Cc2ccc(O)cc2)N(C)C(=O)[C@H](Cc2ccccc2)NC(=O)[C@@H](C)NC(=O)[C@H](CCCNC(=N)N)NC(=O)[C@H]([C@@H](C)CC)NC1=O	UniProt:P02786	> 1000 nM
CC[C@H](C)[C@@H]1NC(=O)[C@H](Cc2ccc(OC)cc2)NC(=O)[C@H](Cc2ccc(O)cc2)NC(=O)[C@H](CC(N)=O)NC(=O)[C@H](Cc2c[nH]c3ccccc23)N(C)C(=O)[C@H](C(C)C)NC(=O)[C@H](Cc2cccc(Cl)c2)N(C)C(=O)[C@H](C(C)C)NC(=O)[C@H](C)N(C)C(=O)CSC[C@@H](C(N)=O)NC(=O)[C@H](Cc2ccc(O)cc2)N(C)C(=O)[C@H](Cc2ccccc2)NC(=O)[C@@H](CCCNC(=N)N)NC(=O)[C@H](CCCNC(=N)N)NC(=O)[C@H]([C@@H](C)CC)NC1=O	UniProt:P02786	1 to 100 nM

q: Name the value of Kd reported for CC[C@H](C)[C@@H]1NC(=O)[C@H](Cc2ccc(O)cc2)NC(=O)[C@H](Cc2ccc(O)cc2)NC(=O)[C@H](CC(N)=O)NC(=O)[C@H](Cc2c[nH]c3ccccc23)NC(=O)[C@H](C(C)C)NC(=O)[C@H](Cc2ccccc2)NC(=O)[C@H](CCC(=O)O)NC(=O)[C@H](C)NC(=O)CSC[C@@H](C(N)=O)NC(=O)[C@H](Cc2ccc(O)cc2)N(C)C(=O)[C@H](Cc2ccc(O)cc2)NC(=O)[C@H](CCCNC(=N)N)NC(=O)[C@H](CCCNC(=N)N)NC(=O)[C@H]([C@@H](C)CC)NC1=O when tested on UniProt:P02786.
a: 1 to 100 nM
